The reported measurements were obtained from patent US8268809B2.

system: vaccinia virus; type: cell-based
measure name: Class category of infected monolayers in plaque assay

| molecule | result |
| --- | --- |
| COC(=O)c1ccc(-c2cc(Nc3ccccc3OC)ncn2)cc1OC [Eph2_wbz 211] | Class II |
| Cc1ccc(NC(=O)c2ccc(CN3CCN(CCF)CC3)cc2)cc1Nc1nccc(-c2cccnc2)n1 [STLF2] | Class III |
| O=C(c1ccccc1)c1ccc(-c2ccc3c(-c4ccc(Cl)c(F)c4)n[nH]c3n2)cc1 [APcK-35] | Class III |
| O=C(Nc1cccc(-c2ccc3nnc(-c4ccco4)n3n2)c1)Sc1ccccc1 [LG2-79] | Class II |
| Cn1c(=O)c(-c2c(Cl)cccc2Cl)cc2cnc(Nc3ccc(Br)cc3)nc21 [PD-Br] | Class III |
| Cc1ccc(-n2c(=O)[nH]c3c(C(N)=O)nc(-c4c(Cl)cccc4[N+](=O)[O-])nc32)cc1 [dm-I-193] | Class III |
| O=C1NC(=O)/C(=C/c2ccc3c(c2)OC(F)(F)O3)S1 [AS-604850, reference compound] | Class III |
| CCOC(=O)c1ccc(-c2n[nH]c3nc(-c4cc(C)c(O)c(C)c4)ccc23)cc1 [APcK-106] | Class III |
| COc1cccc(-c2cc(Nc3cccc(S(=O)(=O)Nc4ccccc4OC)c3)ncn2)c1 [Eph2_wbz 112] | Class III |
| CCOC(=O)c1ccc(-c2n[nH]c3nc(-c4cc(OC)cc(OC)c4)ccc23)cc1 [APcK-108] | Class III |
| CCOC(=O)c1ccc(-c2n[nH]c3nc(-c4cccc(NC(C)=O)c4)ccc23)cc1 [APcK-105] | Class III |
| O=C(Nc1cccc(-c2ccc(Cl)nn2)c1)c1cccc([N+](=O)[O-])c1 [YYB19] | Class III |
| CC(=O)Nc1cccc(-c2ccc3c(-c4ccc(Cl)cc4Cl)n[nH]c3n2)c1 [APcK-40] | Class III |
| O=C1NC(=O)/C(=C/c2ccc3nccnc3c2)S1 [AS-604240, reference compound] | Class III |
| Cn1c(=O)c(-c2c(Cl)cccc2Cl)cc2cnc(Nc3cccc(C(C)(C)C)c3)nc21 [YYA195] | Class III |
| Brc1cnc2c(NCC3CC3)nccn12 [LG2-101] | Class III |
| Cc1ccc(NC(=O)c2ccc(CN3CCN(C)CC3)cc2)cc1Nc1nccc(-c2cnccc2C)n1 [StiAF3_Ue] | Class III |

###

test system: vaccinia virus; assay type: cell-based
measure name: Class category of infected monolayers in plaque assay

| compound | result |
| --- | --- |
| CC(=O)Nc1cccc(-c2ccc3c(-c4ccc(F)c(C)c4)n[nH]c3n2)c1 [APcK-102] | Class III |
| COc1ccccc1NS(=O)(=O)c1cccc(Nc2cc(-c3ccc([N+](=O)[O-])cc3)ncn2)c1 [Eph2_wbz 103] | Class III |
| COc1ccccc1NS(=O)(=O)c1cccc(Nc2cc(-c3ccc(O)cc3)ncn2)c1 [Eph2_wbz 102] | Class III |
| Cc1ccc(NC(=O)c2ccc(CN3CCN(Cc4ccc(I)cc4)CC3)cc2)cc1Nc1nccc(-c2cccnc2)n1 [STLL3] | Class III |
| COc1cc(OC)cc(-c2cnc3c(NCC4CC4)nccn23)c1 [LG2-102] | Class III |
| O=C(Nc1cccc(-c2ccc3nncn3n2)c1)c1cccc([N+](=O)[O-])c1 [YYB31] | Class III |
| COc1ccccc1NS(=O)(=O)c1cccc(Nc2cc(-c3ccc(C(=O)O)cc3)ncn2)c1 [Eph2_wbz 104] | Class III |
| COc1ccccc1NS(=O)(=O)c1cccc(Nc2cc(-c3ccc(C(C)=O)cc3)ncn2)c1 [Eph2_wbz 110] | Class III |
| Nc1cccc(-c2ccc3nnc(-c4ccco4)n3n2)c1 [LG2-71] | Class III |
| Cc1ccc(NC(=O)c2ccc(CN3CCN(CCO)CC3)cc2)cc1Nc1nccc(-c2cccnc2)n1 [STI-OH] | Class III |
| COc1ccc(Nc2nccn3c(-c4cccc(C(N)=O)c4)cnc23)cc1 [LG2-13] | Class III |
| CCc1nnc2ccc(-c3cccc(NC(=O)c4ccc(OC)c(OC)c4)c3)nn12 [YYB41] | Class II |
| COc1ccc(Nc2nccn3c(Br)cnc23)cc1 [LG2-9] | Class III |
| CC(=O)Nc1cccc(-c2ccc3c(-c4ccc(Cl)c(F)c4)n[nH]c3n2)c1 [APcK-104] | Class III |
| COc1ccccc1NS(=O)(=O)c1cccc(Nc2cc(-c3ccc(NC(=O)CCC(=O)O)cc3)ncn2)c1 [Eph2_wbz 117] | Class III |
| CC(=O)Nc1cccc(-c2ccc3c(-c4ccc(F)cc4)n[nH]c3n2)c1 [APcK-103] | Class III |
| COc1ccccc1NS(=O)(=O)c1cccc(Nc2cc(-c3ccc(NC(C)=O)cc3)ncn2)c1 [Eph2_wbz 106] | Class III |
| COc1ccc(OC)c(S(=O)(=O)Nc2cccc(-c3ccc4nnc(-c5cccs5)n4n3)c2)c1 [YYB44] | Class II |
| COc1ccccc1NS(=O)(=O)c1cccc(Nc2cc(-c3ccc(C(F)(F)F)cc3)ncn2)c1 [Eph2_wbz 107] | Class II |
| COc1ccccc1NS(=O)(=O)c1cccc(Nc2cc(-c3ccc(OC(C)=O)cc3)ncn2)c1 [Eph2_wbz 105] | Class III |
| Cc1ccc(-n2c(=O)[nH]c3c(C(N)=O)nc(-c4c(F)cc(Cl)cc4F)nc32)cc1 [dm-I-187] | Class III |
| Cc1ccc(-c2ccnc(Nc3cc(NC(=O)c4ccc(CN5CCN(C)CC5)cc4)ccc3C)n2)cn1 [WBZ-4] | Class II |
| CC(=O)Nc1cccc(-c2ccc3c(-c4ccc(Br)c(F)c4)n[nH]c3n2)c1 [APcK-43] | Class III |
| CCOC(=O)c1ccc(-c2ccc3c(-c4ccc(C(=O)OCC)cc4)n[nH]c3n2)cc1 [APcK-48] | Class III |
| Cc1ccc(-n2c(=O)[nH]c3c(C(N)=O)nc(C4CCCCC4)nc32)cc1 [dm-I-203] | Class III |
| COc1ccccc1Nc1cc(-c2ccc3[nH]ccc3c2)ncn1 [Eph2_wbz 216] | Class III |
| COc1cc(OC)cc(-c2ccc3c(-c4ccc(Cl)c(F)c4)n[nH]c3n2)c1 [APcK-111] | Class III |
| COc1ccccc1Nc1cc(-c2ccc([N+](=O)[O-])cc2)ncn1 [Eph2_wbz 203] | Class III |
| CC(=O)Nc1ccc(-c2ccc3c(-c4ccc(Cl)cc4Cl)n[nH]c3n2)cc1 [APcK-26] | Class III |
| CC(=O)Nc1ccc(-c2ccc3c(-c4ccc(Br)cc4)n[nH]c3n2)cc1 [APcK-27] | Class III |
| Brc1cnc2c(NCc3cccs3)nccn12 [LG2-95] | Class III |
| COc1cc(OC)cc(-c2ccc3c(-c4ccc(F)c(C)c4)n[nH]c3n2)c1 [APcK-109] | Class II |
| COc1ccccc1Nc1cc(-c2ccc(NC(C)=O)cc2)ncn1 [Eph2_wbz 206] | Class II |
